Each entry below lists one item and its recorded Binding energy value.
experiment: Binding energy by using the equation deltaG obsd = -RT ln KD; assay type: ADME
Give just the number in kcal/mol; leave the unit off.

Challenge: // Binding energy lookup, key: COC(=O)C1=CCCN(C)C1 [ARECOLINE]
Response given: 7.2

Challenge: // Binding energy lookup, key: C=C(C)[C@@H]1[C@H]2OC(=O)[C@@H]1[C@]1(O)[C@H]3O[C@H]3[C@]3(CO3)[C@]1(C)[C@@H]2O
Response given: 8.8

Challenge: // Binding energy lookup, key: C(=C\c1ccccc1)/CN1CCN(C(c2ccccc2)c2ccccc2)CC1 [CINNARIZINE]
Response given: 8.4

Challenge: // Binding energy lookup, key: O=P(O)(O)CCCCO
Response given: 3.3

Challenge: // Binding energy lookup, key: CNCCCC1c2ccccc2C=Cc2ccccc21 [PROTRIPTYLINE]
Response given: 10.8

Challenge: // Binding energy lookup, key: O=C(O)C(Cc1ccccc1)OP(=O)(O)O (configuration not stated)
Response given: 9.3

Challenge: // Binding energy lookup, key: CN(C)CCC(c1ccc(Cl)cc1)c1ccccn1 (configuration not stated) [CHLORPHENIRAMINE]
Response given: 12.8

Challenge: // Binding energy lookup, key: CC(Oc1c(Cl)cccc1Cl)C1=NCCN1 (configuration not stated) [LOFEXIDINE]
Response given: 11.8

Challenge: // Binding energy lookup, key: CNCCC(Oc1ccccc1OC)c1ccccc1 (configuration not stated) [NISOXETINE]
Response given: 11.5

Challenge: // Binding energy lookup, key: CC(=O)[C@H]1CC[C@H]2[C@@H]3CCC4=CC(=O)CC[C@]4(C)[C@H]3CC[C@]12C [PROGESTERONE]
Response given: 10.5

Challenge: // Binding energy lookup, key: Oc1ccccc1 [PHENOL]
Response given: 2.7

Challenge: // Binding energy lookup, key: O=C(CCCN1CCC2(CC1)C(=O)NCN2c1ccccc1)c1ccc(F)cc1 [SPIPERONE]
Response given: 14

Challenge: // Binding energy lookup, key: CN1[C@@H]2CC[C@H]1C[C@@H](OC(c1ccccc1)c1ccccc1)C2 [BENZTROPINE]
Response given: 12.6

----------
assay: Binding energy by using the equation deltaG obsd = -RT ln KD; type: ADME
Each entry below lists one item and its recorded Binding energy value.
Give just the number in kcal/mol; leave the unit off.

Examples from the recorded data:
1) CC(=O)CC(c1ccccc1)c1c(O)c2ccccc2oc1=O (configuration not stated) = 6.9
2) NC(=O)C1(N2CCCCC2)CCN(CCCC(=O)c2ccc(F)cc2)CC1 = 12.4
3) CC(=O)OC(Cc1ccc(C=O)cc1)c1ccc(C=O)cc1 (configuration not stated) = 6.4
4) N[C@@H](Cc1cc(I)c(Oc2cc(I)c(O)c(I)c2)c(I)c1)C(=O)O = 10.3
5) O=C(O)CCc1ccccc1 = 5.5
6) O=C(O)Cc1ccccc1Oc1ccc(Cl)c(O)c1Cl = 8.7
7) O=C(CCCN1CCC(O)(c2ccc(Cl)cc2)CC1)c1ccc(F)cc1 = 12.3
8) CCCCCc1ccc2nc(N)nc(N)c2c1C = 18.7

Challenge: // Binding energy lookup, key: NCCc1ccc(O)c(O)c1
Response given: 11.8

Challenge: // Binding energy lookup, key: COc1ccc(CCN2CCC(Nc3nc4ccccc4n3Cc3ccc(F)cc3)CC2)cc1
Response given: 11.3

Challenge: // Binding energy lookup, key: CSc1ccc2c(c1)N(CCC1CCCCN1C)c1ccccc1S2 (configuration not stated)
Response given: 11

Challenge: // Binding energy lookup, key: O=C1Nc2ccc(Cl)cc2C(c2ccccc2Cl)=NC1O (configuration not stated)
Response given: 11.6

Challenge: // Binding energy lookup, key: CN(C)CCC=C1c2ccccc2COc2ccccc21 [DOXEPIN]
Response given: 13.1

Challenge: // Binding energy lookup, key: O=C1CCN([C@H]2C[C@H](O)[C@@H](COP(=O)(O)O)O2)C(=O)N1
Response given: 10.9

Challenge: // Binding energy lookup, key: Clc1cccc(Cl)c1N=C1NCCN1
Response given: 12.3

Challenge: // Binding energy lookup, key: O=P(O)(O)C#CCCO
Response given: 3.4

Challenge: // Binding energy lookup, key: CCc1nc(N)nc(N)c1C12CC3CC(CC(C3)C1)C2
Response given: 13.4

Challenge: // Binding energy lookup, key: COc1cccc(OC)c1OCCNCC1COc2ccccc2O1 (configuration not stated)
Response given: 12.9

Challenge: // Binding energy lookup, key: COc1cc(CCN)cc(OC)c1OC
Response given: 7.1

----------
assay: Binding energy by using the equation deltaG obsd = -RT ln KD; assay type: ADME
VALUE_KIND: Binding energy (kcal/mol)
Give just the number in kcal/mol; leave the unit off.

Examples from the recorded data:
1) C[C@]12CCC(=O)C=C1CC[C@@H]1[C@@H]2[C@@H](O)C[C@]2(C=O)[C@@H](C(=O)CO)CC[C@@H]12 = 12.7
2) Cc1cccc(C)c1N=C1NCCCS1 = 11.3

Attention now shifts to the item below.
Challenge: // Binding energy lookup, key: CCC(=O)C(CC(C)N(C)C)(c1ccccc1)c1ccccc1 (stereo not drawn)
Response given: 11.8

----------
assay: Binding energy by using the equation deltaG obsd = -RT ln KD; format: ADME
Response field label: string, one of Y (Binding energy strictly below 10 kcal/mol) or N.

Challenge: A record lists CC[C@H](C)[C@H](N)C(=O)O . Is its Binding energy below 10 kcal/mol?
Response given: Y

Challenge: A record lists CC[C@@H](CO)NC(=O)[C@@H]1C=C2c3cccc4c3c(cn4C)C[C@H]2N(C)C1 [METHYSERGIDE] . Is its Binding energy below 10 kcal/mol?
Response given: N

Challenge: A record lists Cc1ccc(/C(=C\CN2CCCC2)c2ccccn2)cc1 . Is its Binding energy below 10 kcal/mol?
Response given: N

Challenge: A record lists Cc1ccc(N(CC2=NCCN2)c2cccc(O)c2)cc1 . Is its Binding energy below 10 kcal/mol?
Response given: N

Challenge: A record lists O=C1NCN(c2ccccc2)C12CCN(CCCC(c1ccc(F)cc1)c1ccc(F)cc1)CC2 . Is its Binding energy below 10 kcal/mol?
Response given: N

----------
assay: Binding energy by using the equation deltaG obsd = -RT ln KD; type: ADME
Response field label: string, one of TRUE (Binding energy strictly below 10 kcal/mol) or FALSE.

# example entries with known answers
1. COC1C2CCN(CC3CC3)C1Cc1ccc(O)cc12 (centres undefined) = FALSE
2. C[C@@H]1O[C@@H](O[C@H]2C[C@@H](O)[C@]3(CO)[C@H]4[C@H](O)C[C@]5(C)[C@@H](C6=CC(=O)OC6)CC[C@]5(O)[C@@H]4CC[C@]3(O)C2)[C@H](O)[C@H](O)[C@H]1O = FALSE
3. C[C@H]1[C@H]2C(=O)c3ccc(O)cc3[C@]1(C)CCN2CC1CC1 = FALSE
4. CCCC(CCC)C(=O)O = TRUE
5. Nc1cc(Cl)c(N=C2NCCN2)c(Cl)c1 = FALSE
6. Clc1ccc(C(c2ccc(Cl)cc2)C(Cl)(Cl)Cl)cc1 = TRUE

Challenge: A record lists O=c1[nH]c2ccccc2n1CCCN1CCC(n2c(=O)[nH]c3cc(Cl)ccc32)CC1 . Is its Binding energy below 10 kcal/mol?
Response given: FALSE

Challenge: A record lists NCCc1c[nH]c2ccc(O)cc12 . Is its Binding energy below 10 kcal/mol?
Response given: TRUE

----------
assay: Binding energy by using the equation deltaG obsd = -RT ln KD; format: ADME
VALUE_KIND: Binding energy
Kindly write the number and append the unit.

Examples from the recorded data:
1) CN(C)CCc1c[nH]c2ccc(O)cc12 = 9.4 kcal/mol
2) CN1CCC(=C2c3ccccc3C=Cc3ccccc32)CC1 = 12.8 kcal/mol
3) NC(=O)C(N)Cc1ccccc1 (stereo not given) = 6.1 kcal/mol
4) Cc1csc(Cl)c1NC1=NCCN1 = 11.8 kcal/mol

Attention now shifts to the item below.
Challenge: // Binding energy lookup, key: CO[C@]12CC[C@@]3(C[C@@H]1[C@](C)(O)C(C)(C)C)[C@H]1Cc4ccc(O)c5c4[C@@]3(CCN1CC1CC1)[C@H]2O5
Response given: 13.4 kcal/mol

----------
assay: Binding energy by using the equation deltaG obsd = -RT ln KD; type: ADME
VALUE_KIND: Binding energy (kcal/mol)
Give just the number in kcal/mol; leave the unit off.

Examples from the recorded data:
1) NCc1cc(=O)[nH]o1 [MUSCIMOL] = 11.9
2) Cc1c(Cc2ccc(Cl)cc2)cnc2nc(N)nc(N)c12 = 13.2
3) COc1ccc(CN(CCN(C)C)c2ccccn2)cc1 [PYRILAMINE] = 12.7
4) Cc1nc(N)nc(N)c1-c1ccc(Cl)c(Cl)c1 [METOPRINE] = 12.3
5) NCCc1ccccc1 [PHENETHYLAMINE] = 5.5
6) O=C1CC(=O)N([C@@H]2O[C@H](COP(=O)(O)O)[C@@H](O)[C@H]2O)C(=O)N1 = 15.1
7) N/C=C(\OP(=O)(O)O)C(=O)O = 10.5
8) CN(Cc1cnc2nc(N)nc(N)c2n1)c1ccc(C(=O)N[C@@H](CCC(=O)O)C(=O)O)cc1 [METHOTREXATE] = 12.9

Challenge: // Binding energy lookup, key: N=C(N)NC(=O)Cc1c(Cl)cccc1Cl [GUANFACINE]
Response given: 11.9

Challenge: // Binding energy lookup, key: CC(=O)OCC[N+](C)(C)C [ACETYLCHOLINE]
Response given: 11.1

Challenge: // Binding energy lookup, key: CNCCCN1c2ccccc2CCc2ccccc21 [DESIPRAMINE]
Response given: 12.2

Challenge: // Binding energy lookup, key: Cc1cc(C(C)(C)C)c(O)c(C)c1CC1=NCCN1 [OXYMETAZOLINE]
Response given: 12.2

Challenge: // Binding energy lookup, key: O=P(O)(O)OC[C@H]1O[C@](O)(CO)[C@@H](O)[C@@H]1O
Response given: 5.7

Challenge: // Binding energy lookup, key: CCC(=O)C1(c2cccc(O)c2)CCN(C)CC1 [KETOBEMIDONE]
Response given: 10.8

Challenge: // Binding energy lookup, key: COc1ccc2cc([C@H](C)C(=O)O)ccc2c1 [NAPROXEN]
Response given: 8.5

Challenge: // Binding energy lookup, key: CN1C[C@H](CNC(=O)OCc2ccccc2)C[C@@H]2c3cccc4c3c(cn4C)C[C@H]21 [METERGOLINE]
Response given: 13

Challenge: // Binding energy lookup, key: c1ccc2c(c1)OCC(CN1CCCCC1)O2 (configuration not stated) [PIPEROXAN]
Response given: 10.7

Challenge: // Binding energy lookup, key: OC[C@H]1OC(O)[C@H](O)[C@@H](O)[C@@H]1O (some centres not stated) [DEXTROSE]
Response given: 8.7

Challenge: // Binding energy lookup, key: c1ccc2c(CC3=NCCN3)cccc2c1 [NAPHAZOLINE]
Response given: 11.9

Reference for the values: ChEMBL document CHEMBL1122538
